Reference source for all entries: ChEMBL document CHEMBL2417435

Target: Short transient receptor potential channel 6 (Homo sapiens)
Sequence (Q9Y210 whole entry): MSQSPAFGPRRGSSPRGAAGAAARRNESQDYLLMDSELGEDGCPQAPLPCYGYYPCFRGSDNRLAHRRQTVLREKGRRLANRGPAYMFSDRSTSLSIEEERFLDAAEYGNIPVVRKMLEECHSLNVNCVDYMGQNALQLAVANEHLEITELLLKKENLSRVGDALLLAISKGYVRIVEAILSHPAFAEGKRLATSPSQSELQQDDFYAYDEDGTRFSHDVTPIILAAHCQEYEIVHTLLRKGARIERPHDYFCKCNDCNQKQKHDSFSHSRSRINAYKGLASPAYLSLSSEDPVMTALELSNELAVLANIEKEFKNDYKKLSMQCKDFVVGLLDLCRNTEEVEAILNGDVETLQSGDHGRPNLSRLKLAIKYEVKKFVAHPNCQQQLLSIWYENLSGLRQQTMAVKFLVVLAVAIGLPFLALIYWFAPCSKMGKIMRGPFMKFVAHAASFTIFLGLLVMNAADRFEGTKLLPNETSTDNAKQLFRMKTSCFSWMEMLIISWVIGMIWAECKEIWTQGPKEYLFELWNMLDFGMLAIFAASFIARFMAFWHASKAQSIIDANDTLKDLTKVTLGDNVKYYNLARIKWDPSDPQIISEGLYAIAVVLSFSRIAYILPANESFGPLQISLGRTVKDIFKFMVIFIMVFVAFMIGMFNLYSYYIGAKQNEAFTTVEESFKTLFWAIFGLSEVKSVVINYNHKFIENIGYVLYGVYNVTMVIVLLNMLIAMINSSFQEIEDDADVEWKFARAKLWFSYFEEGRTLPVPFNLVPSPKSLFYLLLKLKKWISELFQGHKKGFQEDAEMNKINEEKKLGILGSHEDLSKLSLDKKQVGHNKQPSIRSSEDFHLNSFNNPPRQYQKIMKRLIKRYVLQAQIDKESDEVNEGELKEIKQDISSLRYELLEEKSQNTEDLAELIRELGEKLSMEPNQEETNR
Assay: Inhibition of human recombinant TRPC6 expressed in HEK293-MSRII cells assessed as carbachol-stimulated Ca2+/Na+ influx after 10 mins by FLIPR assay
Measured Parameter: IC50 (µM)

1: Cc1ccc(Nc2nc(C(=O)N3CCC(C4CCCCC4)CC3)cs2)cc1
2: COc1ccc(Nc2nc(C(=O)N3CCc4ccccc4C3)cs2)cc1
QUERY: Which one would you say has the larger IC50 value: 1 , or 2 ? Record your answer as the label of the chosen record.
RESULT: 1
(1: 4 µM, 2: 0.5 µM)

1: CC1CCN(C(=O)c2csc(Nc3ccccc3Cl)n2)CC1
2: Cc1sc(Nc2ccc(Cl)cc2F)nc1C(=O)N1CCC[C@H](C)[C@@H]1C
3: Cc1ccc(Nc2nc(C(=O)N3CCCCC3c3ccccc3)cs2)cc1 (configuration not stated)
4: Cc1sc(Nc2ccc(Cl)cc2F)nc1C(=O)N1CCc2ncccc2C1
QUERY: Order the records so the highest IC50 appears first and the lowest last. Reply with the labels, ordered as the question asks.
RESULT: 3, 4, 1, 2
(3: 15.8 µM, 4: 6.3 µM, 1: 3.16 µM, 2: 0.016 µM)

a: Cc1ccc(Nc2nc(C(=O)N3CCCCC3C)cs2)cc1 (configuration not stated)
b: Cc1ccc(Nc2nc(C(=O)N3CCC(C)CC3)cs2)cc1
c: Cc1sc(Nc2ccc(Cl)cc2F)nc1C(=O)N1CCCC(C)C1C (racemic)
d: Cc1sc(Nc2ccc3c(c2)OCO3)nc1C(=O)N1CCc2ccccc2C1C (configuration not stated)
e: Cc1ccc(Nc2nc(C(=O)N3CCCC(C)C3C)cs2)cc1 (configuration not stated)
QUERY: Order the records so the highest IC50 appears first and the lowest last. Reply with the labels, ordered as the question asks.
RESULT: a, b, e, c, d
